Source of measurements: the supplement of paper PMC10567573

B1: TOR1AIP2 (parent)
chain: SPGHSSAGQEGEDTLRRRLLAPEA

Variants of: B1
assay explanation: protein stability index of a GFP-peptide fusion (GPS, HEK-293T) (PSI 1-6); higher = more stable;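 also: lentivirally expressed fusions sorted by FACS into six bins by GFP to DsRed ratio, PSI derived from sequencing read proportions per bin multiplied by bin number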
condition info: c terminus: a fixed tail appended
Class key for protein stability index values: lower bin = under 4, middle bin = from 4 up to 5, upper bin = 5 and over

{"mutant designation": "R16H", "discrete label": "upper bin"}
{"mutant designation": "G8K", "discrete label": "middle bin"}
{"mutant designation": "E12S", "discrete label": "lower bin"}

Query: Just checking, what class would you give E10L here?
Response: lower bin
